- System: Escherichia coli
- assay name: Antibacterial activity against Escherichia coli OCC 122 after 18 hrs
- Type: functional
- run parameters: OCC 122, 18 h
Form field: MIC (one value per entry).

Check out these entries, answers already filled in.
| compound | tested system | MIC |
| --- | --- | --- |
| O[C@@H]1[C@H](Oc2cc(Cl)ccc2Oc2ccc(Cl)cc2Cl)OC[C@@H](O)[C@H]1O | Escherichia coli | 8 to 32 µg/mL |
| OC[C@H]1O[C@H](Oc2cc(Cl)ccc2Oc2ccc(Cl)cc2Cl)[C@@H](O)[C@@H](O)[C@@H]1O | Escherichia coli | 4 to 64 µg/mL |
| OC[C@H]1O[C@@H](Oc2cc(Cl)ccc2Oc2ccc(Cl)cc2Cl)[C@H](O)[C@@H](O)[C@@H]1O | Escherichia coli | 8 to 64 µg/mL |

Then there is this compound:
Tell me the measured MIC of Oc1cc(Cl)ccc1Oc1ccc(Cl)cc1Cl [TRICLOSAN] , please.
0.1 to 0.5 µg/mL

----------
- Test system: Klebsiella pneumoniae
- assay name: Antibacterial activity against Klebsiella pneumoniae ATCC 10031 after 18 hrs
- Format: functional
- run parameters: ATCC 10031, 18 h
Form field: MIC (one value per entry).

Check out these entries, answers already filled in.
| chemical smiles | MIC |
| --- | --- |
| OC[C@H]1O[C@H](Oc2cc(Cl)ccc2Oc2ccc(Cl)cc2Cl)[C@H](O)[C@@H](O)[C@@H]1O | 1 µg/mL |
| O[C@@H]1[C@@H](Oc2cc(Cl)ccc2Oc2ccc(Cl)cc2Cl)OC[C@@H](O)[C@H]1O | 0.5 µg/mL |
| OC[C@H]1O[C@H](Oc2cc(Cl)ccc2Oc2ccc(Cl)cc2Cl)[C@@H](O)[C@@H](O)[C@@H]1O | 4 µg/mL |
| OC[C@H]1O[C@@H](Oc2cc(Cl)ccc2Oc2ccc(Cl)cc2Cl)[C@H](O)[C@@H](O)[C@@H]1O | 0.5 µg/mL |
| OC[C@H]1O[C@@H](Oc2cc(Cl)ccc2Oc2ccc(Cl)cc2Cl)[C@H](O)[C@@H](O)[C@H]1O | 0.5 µg/mL |

Tell me the measured MIC of OC[C@H]1O[C@H](Oc2cc(Cl)ccc2Oc2ccc(Cl)cc2Cl)[C@H](O)[C@@H](O)[C@H]1O , please.
1 µg/mL

Let us now turn to Oc1cc(Cl)ccc1Oc1ccc(Cl)cc1Cl
0.1 µg/mL

Let us now turn to O[C@@H]1[C@H](Oc2cc(Cl)ccc2Oc2ccc(Cl)cc2Cl)OC[C@@H](O)[C@H]1O
4 µg/mL

----------
Form field: MIC (one value per entry).
- assay name: Antibacterial activity against Salmonella enterica subspecies enterica serotype Poona NCTC 4840 after 18 hrs
- Assay type: functional, Salmonella enterica subsp. enterica serovar Poona
- run parameters: NCTC 4840, 18 h

| chemical smiles | MIC |
| --- | --- |
| O[C@@H]1[C@H](Oc2cc(Cl)ccc2Oc2ccc(Cl)cc2Cl)OC[C@@H](O)[C@H]1O | 32 to 64 µg/mL |
| O[C@@H]1[C@@H](Oc2cc(Cl)ccc2Oc2ccc(Cl)cc2Cl)OC[C@@H](O)[C@H]1O | 2 to 8 µg/mL |
| OC[C@H]1O[C@@H](Oc2cc(Cl)ccc2Oc2ccc(Cl)cc2Cl)[C@H](O)[C@@H](O)[C@@H]1O | 16 to 32 µg/mL |

Then there is this compound:
Tell me the measured MIC of OC[C@H]1O[C@H](Oc2cc(Cl)ccc2Oc2ccc(Cl)cc2Cl)[C@@H](O)[C@@H](O)[C@@H]1O , please.
16 to 64 µg/mL
